# target.desc: EP2 (Homo sapiens, UniProt P43116)
# Sequence (P43116 whole entry): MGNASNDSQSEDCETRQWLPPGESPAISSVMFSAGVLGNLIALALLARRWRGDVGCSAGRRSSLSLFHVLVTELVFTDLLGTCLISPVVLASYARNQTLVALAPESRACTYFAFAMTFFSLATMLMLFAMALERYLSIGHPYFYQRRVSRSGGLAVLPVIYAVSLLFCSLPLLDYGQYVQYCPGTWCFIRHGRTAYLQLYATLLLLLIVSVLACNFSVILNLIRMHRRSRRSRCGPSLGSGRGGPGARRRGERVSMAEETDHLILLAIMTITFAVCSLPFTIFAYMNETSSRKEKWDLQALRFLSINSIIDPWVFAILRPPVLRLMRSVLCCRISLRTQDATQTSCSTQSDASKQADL
# procedure.text: cAMP assay, HEK-EBNA cells expressing EP2
# Assay type: cell-based
# Design: expressed in transfected cells; host or cells: HEK-EBNA
# measurement.conditions: value in parentheses in EP2 column, read-out: EP2 EC50 (nM), measurement of cAMP (data in parentheses)
Assign log10 of EC50 to each entry below.
The base-10 logarithm of EC50, taken with EC50 in nM, is what appears here.

# input compound: O=C(O)CCC/C=C\C[C@@H]1[C@@H](c2ccc(C(O)CCc3ccccc3)cc2)[C@H](O)C[C@H]1Cl (stereo partly shown) ; wanted: its log10 of EC50 2.10

Can you share its log10 of EC50? I mean this compound: CCCCCC(O)c1ccc([C@@H]2[C@@H](CCCc3ncc(C(=O)O)s3)[C@H](Cl)C[C@H]2O)cc1 (stereo partly shown) 3.03

Look up log10 of EC50 for this compound: CCCC(O)c1ccc([C@@H]2[C@@H](C/C=C\CCCC(=O)O)[C@H](Cl)C[C@H]2O)cc1 (stereo partly shown) 0.85

Quick one: log10 of EC50 for O=C(O)CCCCCC[C@@H]1[C@@H](c2ccc(C(O)Cc3ccccc3)cc2)[C@H](O)C[C@H]1Cl (stereo partly shown) ? 1.77

Param item = O=C(O)CCC/C=C\C[C@@H]1[C@@H](c2ccc(C(O)CCC3CCCCC3)cc2)[C@H](O)C[C@H]1Cl (stereo partly shown) ; retrieve measured log10 of EC50. 2.25

What value of measured log10 of EC50 is listed for CCCCC(O)C(C)(C)c1ccc([C@@H]2[C@@H](C/C=C\CCCC(=O)O)[C@H](Cl)C[C@H]2O)cc1 (mixture of isomers) ? 0.95

Query (compound): CCCCCC(O)c1ccc([C@@H]2[C@@H](C/C=C\CCCC(=O)O)[C@H](F)C[C@H]2O)cc1 (mixture of isomers) ; field requested: log10 of EC50 0.90

---

# target.desc: UniProtKB P43116
# procedure.text: Competition binding, [3H]PGE2, EP2 (Ki)
# Design: expressed in transfected cells; membranes or whole cells
# measurement.conditions: HEK 293 cells stably expressing human EP2, [3H]PGE2
property.name: log10(Ki) (log10 of the value in nM)
Hello, just confirming the data are log10 of Ki with units of nM.

// log10(Ki) lookup, key: O=C(O)CCCCCC[C@@H]1[C@@H](c2ccc(C(O)CCc3ccccc3)cc2)[C@H](O)C[C@H]1Cl (stereo partly drawn) 3.33

Can you look up the measured log10(Ki) of CCCCC(O)c1cccc([C@@H]2[C@@H](C/C=C\CCCC(=O)O)[C@H](Cl)C[C@H]2O)c1 (stereo partly drawn) for me? 3.10

Please report the recorded log10(Ki) for CCCCCC(O)c1ccc([C@@H]2[C@@H](C/C=C\CCCC(=O)O)[C@H](Cl)C[C@H]2O)cc1 (mixture of isomers) [Entry 11] . 2.32

Param item = O=C(O)CCC/C=C\C[C@@H]1[C@@H](c2ccc(C(O)CCC3CCCCC3)cc2)[C@H](O)C[C@H]1Cl (stereo partly drawn) ; retrieve measured log10(Ki). 2.41

Form field: reported log10(Ki) of CCCCCC(O)c1ccc([C@@H]2[C@@H](C/C=C\CCCC(=O)O)[C@H](F)C[C@H]2O)cc1 (mixture of isomers) 2.91

Entry CCCCCC(O)c1cccc([C@@H]2[C@@H](C/C=C\CCCC(=O)O)[C@H](Cl)C[C@H]2O)c1 (stereo partly drawn) has what log10(Ki)? 3.14

Look up log10(Ki): CCCCCC(O)c1ccc([C@@H]2[C@@H](C/C=C\CCCC(=O)O)[C@H](Cl)C[C@H]2O)cc1 (single isomer, unassigned) [Entry 13] 1.86

Item under review: O=C(O)CCC/C=C\C[C@@H]1[C@@H](c2ccc(C(O)Cc3ccccc3)cc2)[C@H](O)C[C@H]1Cl (mixture of isomers) . Reported log10(Ki)? 1.89

Quick check: log10(Ki) of CCCCCC(O)C(C)(C)c1ccc([C@@H]2[C@@H](C/C=C\CCCC(=O)O)[C@H](Cl)C[C@H]2O)cc1 (stereo partly drawn) ? 2.26

Reported log10(Ki) for CCCCCC(O)c1ccc([C@@H]2[C@@H](Cc3cccc(CCC(=O)O)c3)[C@H](Cl)C[C@H]2O)cc1 (stereo partly drawn) : what is it? 3.44

Field request: log10(Ki) | item: CC(C)(C)CCCC(O)c1ccc([C@@H]2[C@@H](CCCCCCC(=O)O)[C@H](Cl)C[C@H]2O)cc1 (mixture of isomers) 3.59

Would you mind telling me what log10(Ki) value was observed for O=C(O)CCCCCC[C@@H]1[C@@H](c2ccc(C(O)CCC3CCCCC3)cc2)[C@H](O)C[C@H]1Cl (stereo partly drawn) ? 3.11

Param item = CCCC(O)c1ccc([C@@H]2[C@@H](C/C=C\CCCC(=O)O)[C@H](Cl)C[C@H]2O)cc1 (stereo partly drawn) ; retrieve measured log10(Ki). 3.22

Reported log10(Ki), compound CC(C)(C)CCCC(O)c1ccc([C@@H]2[C@@H](C/C=C\CCCC(=O)O)[C@H](Cl)C[C@H]2O)cc1 (stereo partly drawn) : ____ 3.02

# input compound: CCCCCCc1ccc([C@@H]2[C@@H](C/C=C\CCCC(=O)O)[C@H](Cl)C[C@H]2O)cc1 ; wanted: its log10(Ki) 1.92

Can you look up the measured log10(Ki) of CCCCCC(O)c1ccc([C@@H]2[C@@H](CCCc3ncc(C(=O)O)s3)[C@H](Cl)C[C@H]2O)cc1 (stereo partly drawn) for me? 3.79

# input compound: CCCCCC(O)c1ccc([C@@H]2[C@@H](C/C=C\CCCC(=O)O)[C@H](Cl)C[C@@H]2O)cc1 (stereo partly drawn) ; wanted: its log10(Ki) 1.08

What measured log10(Ki) goes with CCCCCC(O)c1ccc([C@@H]2[C@@H](C/C=C\CCCC(=O)O)[C@@H](Cl)C[C@H]2O)cc1 (stereo partly drawn) ? 3.60

# lookup: log10(Ki) of CCCCCC(O)c1ccc([C@@H]2[C@@H](CCCCCCC(=O)O)[C@H](Cl)C[C@H]2O)cc1 (stereo partly drawn) 2.46

Given CCCCC(O)c1ccc([C@@H]2[C@@H](C/C=C\CCCC(=O)O)[C@H](Cl)C[C@H]2O)cc1 (mixture of isomers) , state its recorded log10(Ki). 2.77

Would you mind telling me what log10(Ki) value was observed for O=C(O)CCC/C=C\C[C@@H]1[C@@H](c2ccc(C(O)c3ccccc3)cc2)[C@H](O)C[C@H]1Cl (stereo partly drawn) ? 2.75

Which log10(Ki) is listed for O=C(O)CCCCCC[C@@H]1[C@@H](c2ccc(C(O)CC3CCCCC3)cc2)[C@H](O)C[C@H]1Cl (stereo partly drawn) ? 3.36

State the recorded log10(Ki) for this entry: O=C(O)CCC/C=C\C[C@@H]1[C@@H](c2ccc(C(O)CCc3ccccc3)cc2)[C@H](O)C[C@H]1Cl (stereo partly drawn) 3.05

What value of log10(Ki) has been reported for the following compound? CCCCCC(O)c1ccc([C@@H]2[C@@H](CCCc3ccc(C(=O)O)s3)[C@H](Cl)C[C@H]2O)cc1 (stereo partly drawn) 1.38

Endpoint output: log10(Ki) of O=C(O)CCCCCC[C@@H]1[C@@H](c2ccc(C(O)Cc3ccccc3)cc2)[C@H](O)C[C@H]1Cl (stereo partly drawn) . Value? 2.17

Fill in the blank: the reported log10(Ki) of CCCCCC(O)c1ccc([C@@H]2[C@@H](C/C=C\CCCC(=O)O)[C@H](Cl)C[C@H]2O)cc1 (single isomer, unassigned) [Entry 12] is ____. 2.32

// log10(Ki) lookup, key: CCCCCCC(O)c1ccc([C@@H]2[C@@H](C/C=C\CCCC(=O)O)[C@H](Cl)C[C@H]2O)cc1 (stereo partly drawn) 2.44

Recorded log10(Ki) of O=C(O)CCC/C=C\C[C@@H]1[C@@H](c2ccc(C(O)CC3CCCCC3)cc2)[C@H](O)C[C@H]1Cl (mixture of isomers) , please. 2.68

I am curious: what log10(Ki) value has been reported for CCCCC(O)C(C)(C)c1ccc([C@@H]2[C@@H](C/C=C\CCCC(=O)O)[C@H](Cl)C[C@H]2O)cc1 (mixture of isomers) ? 2.35
